// provenance: PubChem BioAssay AID602215

tested on: HL-1 cardiomyocytes, H2O2 injury, ATP luminescence, 2 h; assay: H2O2-induced HL-1 cell death suppression – ATP luminescence, dose response (AID 602215);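 further: potency is for protection so actives raise ATP signal against peroxide damage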
The source made the active and inactive calls.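 How the source made its calls: active means IC50 of 20 µM or lower; inactive means the rest.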
Outcome (select one): active, inactive

Some entries whose results are on file:
1. COc1cc(C(=O)Nc2nc(-c3cccs3)cs2)cc(OC)c1OC = inactive
2. Cc1ccccc1N(C(=O)c1snc(C(N)=O)c1N)C(C(=O)NCc1ccccc1)c1ccc(O)cc1 (stereo not given) = active
3. N#Cc1c(-c2ccco2)cc(-c2cccnc2)nc1N = inactive
4. C=CCn1cnc2c(c1=O)c1nc3ccccc3nc1n2/N=C/c1cc(OC)c(OC)c(OC)c1 = inactive
5. CCOc1ccc2nc(NC(=O)CN3CCC(n4nnc5cc(F)ccc54)CC3)sc2c1 = inactive

Lookup: Could you please tell me the result logged for `CC(=O)c1cccc(-c2cnc3c(NC=O)cc(-c4ccccc4F)cn23)c1` in this assay?
Found: active

Lookup: Identify the outcome logged in this assay for the compound shown: `CC(=O)Nc1ccc(C(=O)N/N=C/c2ccccc2OC(=O)c2ccc(Cl)cc2)cc1`
Found: inactive

Lookup: Called result for NC(=O)c1nsc(C(=O)N(c2ccccc2F)C(C(=O)NCc2ccccc2)c2ccc(O)cc2)c1N (stereo not given)
Found: active

Lookup: Kindly provide the recorded test outcome for the following compound: `CC(=O)Nc1ccc(S(=O)(=O)N(Cc2cccnc2)Cc2cc3ccccc3[nH]c2=O)cc1`
Found: active

Lookup: // outcome(item) with item = `COc1ccc2[nH]c(=O)c(CN(Cc3cccnc3)S(=O)(=O)c3ccccc3F)cc2c1`
Found: inactive
